target.or.test.system: Gal-4-PPAR (human PPAR LBD fused to GAL4 DNA-binding domain) (Homo sapiens (Human))
Sequence (P37231 238-503): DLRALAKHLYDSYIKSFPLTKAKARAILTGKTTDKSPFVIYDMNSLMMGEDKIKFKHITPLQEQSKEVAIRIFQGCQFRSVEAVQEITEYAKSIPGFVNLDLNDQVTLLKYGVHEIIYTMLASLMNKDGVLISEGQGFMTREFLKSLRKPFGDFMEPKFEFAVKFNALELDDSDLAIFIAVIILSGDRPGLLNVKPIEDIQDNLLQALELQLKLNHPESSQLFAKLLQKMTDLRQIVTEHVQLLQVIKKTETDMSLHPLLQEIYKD
test.protocol: GAL4-PPARG LBD / UAS-luciferase transactivation assay in HEK 293T cells
Type: cell-based
experimental.context: HEK-293T, 18 h, read-out: % transactivation at 10 μM (GAL4)
experimental.endpoint: activation at 10 µM (%)

INSERT INTO assay_data (smiles_structure, experimental_result) VALUES
  ('Cc1c(C)n(Cc2ccc(-c3ccccc3C(=O)O)cc2)c2ccc(C(=O)N[C@@H](C)c3cccc(F)c3)cc12', 40),
  ('CCOc1cccc([C@H](C)NC(=O)c2ccc3c(c2)c(C)c(C)n3Cc2ccc(-c3ccccc3C(=O)O)cc2)c1', 25),
  ('Cc1c(C)n(Cc2ccc(-c3ccccc3C(=O)O)cc2)c2ccc(C(=O)N[C@H](C)c3cccc(C(F)(F)F)c3Cl)cc12', 10),
  ('Cc1c(C)n(Cc2ccc(-c3ccccc3C(=O)O)cc2)c2ccc(C(=O)N[C@H](C)c3cc(F)ccc3C(F)(F)F)cc12', 15),
  ('Cc1c(C)n(Cc2ccc(-c3ccccc3C(=O)O)cc2)c2ccc(C(=O)N[C@H](C)c3cccc(Cl)c3Cl)cc12', 10),
  ('Cc1c(C)n(Cc2ccc(-c3ccccc3C(=O)O)cc2)c2ccc(C(=O)N[C@@H](C)c3cccc(C(F)(F)F)c3Cl)cc12', 20),
  ('Cc1c(C)n(Cc2ccc(-c3ccccc3C(=O)O)cc2)c2ccc(C(=O)NCc3ccc(F)cc3F)cc12', 30),
  ('Cc1c(C)n(Cc2ccc(-c3ccccc3C(=O)O)cc2)c2ccc(C(=O)NC(C)(C)c3ccc(Br)cc3)cc12', 60);

Source: patent US8957093B2
